# STUDY_SYSTEM: Nuclear receptor subfamily 1 group D member 1 (Homo sapiens)
# ASSAY_NAME: Rev-erbα–DNA interaction modulation, retest – biochemical, FITC-DNA, fluorescence polarization, single point, confirmation (AID 1259319);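 also: 0% = 35 nM protein with DMSO and 100% = 750 nM protein high control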
# EXPERIMENTAL_PARAMETERS: Rev-erb alpha FITC-DNA binding, 90 min, at 25 µM
The campaign covered roughly 3,000 compounds. About 1,800 (60%) were called active.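 The calls were made as follows: active = activation at or above a set limit, or at least 3 SD above the negative control mean; inactive = the rest.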 So high a share suggests a set chosen from earlier hits. Only a sample is shown.
Classes used: t = active, f = inactive

TEST_SMILES: c1ccc2c(-c3nn4nnnc4c4ccccc34)cccc2c1
STUDY_SYSTEM: Nuclear receptor subfamily 1 group D member 1 (Homo sapiens)
CATEGORY_LABEL: t

TEST_SMILES: COc1ccccc1N1CCN(CC(=O)Nc2ccnn2C2CCCC2)CC1
STUDY_SYSTEM: Nuclear receptor subfamily 1 group D member 1 (Homo sapiens)
CATEGORY_LABEL: f

TEST_SMILES: COc1cc(Cl)c(C)cc1NC(=O)COC(=O)c1cc(SC)ccc1Cl
STUDY_SYSTEM: Nuclear receptor subfamily 1 group D member 1 (Homo sapiens)
CATEGORY_LABEL: t

TEST_SMILES: COC(=O)c1cccc(Cn2ccc3ccc(-c4ccc5ccn(C(=O)C6CCCCC6)c5c4)cc32)c1
STUDY_SYSTEM: Nuclear receptor subfamily 1 group D member 1 (Homo sapiens)
CATEGORY_LABEL: t

TEST_SMILES: C=CCNC(=O)CC12CC3CC(C1)CC(CC(=O)NCC=C)(C3)C2
STUDY_SYSTEM: Nuclear receptor subfamily 1 group D member 1 (Homo sapiens)
CATEGORY_LABEL: f

----------
# STUDY_SYSTEM: Nuclear receptor subfamily 1 group D member 1 (Homo sapiens) (UniProt P20393)
# Sequence (P20393 whole entry, looked up): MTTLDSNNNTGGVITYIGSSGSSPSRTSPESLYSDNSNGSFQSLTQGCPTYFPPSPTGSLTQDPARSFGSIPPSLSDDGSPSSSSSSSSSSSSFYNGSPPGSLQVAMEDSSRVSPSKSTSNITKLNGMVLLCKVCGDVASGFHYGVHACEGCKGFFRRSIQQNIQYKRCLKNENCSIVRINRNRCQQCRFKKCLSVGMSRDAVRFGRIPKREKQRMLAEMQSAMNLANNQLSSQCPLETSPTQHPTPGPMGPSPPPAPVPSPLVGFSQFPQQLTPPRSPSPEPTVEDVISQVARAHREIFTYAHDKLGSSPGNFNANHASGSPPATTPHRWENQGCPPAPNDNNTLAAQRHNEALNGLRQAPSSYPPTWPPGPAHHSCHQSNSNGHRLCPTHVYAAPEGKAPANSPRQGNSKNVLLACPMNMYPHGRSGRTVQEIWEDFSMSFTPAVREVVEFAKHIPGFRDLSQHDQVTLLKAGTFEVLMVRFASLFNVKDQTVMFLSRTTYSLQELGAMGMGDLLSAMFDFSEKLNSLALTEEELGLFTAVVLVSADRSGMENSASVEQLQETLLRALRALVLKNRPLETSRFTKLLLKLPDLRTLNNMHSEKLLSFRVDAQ
# ASSAY_NAME: Rev-erbα–DNA interaction modulation, retest – biochemical, FITC-DNA, fluorescence polarization, single point, confirmation (AID 1259319);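 also: 0% = 35 nM protein with DMSO and 100% = 750 nM protein high control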
# EXPERIMENTAL_PARAMETERS: Rev-erb alpha FITC-DNA binding, 90 min, at 25 µM, active compounds read high
Out of some 3,000 compounds screened, about 1,800 (60%) were called active. The set was probably picked from earlier hits. Not all results are given here.
A collection of compounds and their measured activation
MEASURED_QUANTITY: activation (%)

COMPOUND: COC(=O)c1sc(NC(=O)c2ccc(OC)cc2OC)nc1C
MEASURED_QUANTITY: activation
READOUT_UNIT: %
OBSERVED_VALUE: 24.1
--
COMPOUND: COC(=O)c1c(NC(C)=O)sc(C(=O)Nc2ccccc2OC)c1C
MEASURED_QUANTITY: activation
READOUT_UNIT: %
OBSERVED_VALUE: 9.45
--
COMPOUND: CN1/C(=C\C=C2\N=C(c3ccc(F)cc3)OC2=O)C(C)(C)c2ccccc21
MEASURED_QUANTITY: activation
READOUT_UNIT: %
OBSERVED_VALUE: 5.84
--
COMPOUND: Cc1ccc(-n2c(SCC(=O)NCCC3=CCCCC3)nc3n[nH]c(C)c3c2=N)cc1Cl
MEASURED_QUANTITY: activation
READOUT_UNIT: %
OBSERVED_VALUE: 14.5
--
COMPOUND: COc1cc(OC)cc(-c2c(C#Cc3ccsc3)c3cc(-c4ccc(SC)cc4)ccc3n2C)c1
MEASURED_QUANTITY: activation
READOUT_UNIT: %
OBSERVED_VALUE: 32.1
--
COMPOUND: COc1ccc(Cc2nnc(NC(=O)c3ccc(OC)cc3OC)s2)cc1
MEASURED_QUANTITY: activation
READOUT_UNIT: %
OBSERVED_VALUE: 9.03
--
COMPOUND: C=C(C)C1CC=C(C)/C(=N\NC(=O)CNc2ccccc2OC)C1 (stereo not drawn)
MEASURED_QUANTITY: activation
READOUT_UNIT: %
OBSERVED_VALUE: 6.76
--
COMPOUND: COc1ccccc1CC1(C)C(=O)Nc2ccc(OC(F)(F)F)cc21 (stereo not drawn)
MEASURED_QUANTITY: activation
READOUT_UNIT: %
OBSERVED_VALUE: 60.9

Reference source: PubChem BioAssay AID1259319
